The values you see were collected from ChEMBL document CHEMBL1135137.

# TEST_METHOD_NOTES: Solubility at pH 7.5
# Assay type: physicochemical
# CONDITION_NOTES: buffer
OBSERVED_PROPERTY: solubility (µg/mL)

Given item Cn1nc(C(C)(C)C)cc1NC(=O)Nc1ccc(CSc2ccncc2)cc1 , the value recorded as its solubility is 322

a = CCOC(=O)Nc1ccc(Oc2ccc(NC(=O)Nc3cc(C(C)(C)C)nn3C)cc2)cc1
b = Cn1nc(C(C)(C)C)cc1NC(=O)Nc1ccc(Sc2ccncc2)cc1
### Prompt Sorting ascending by solubility, which comes first: a or b ? // return label of chosen record
### Response a

* * *

# ASSAY_SYSTEM: Mitogen-activated protein kinase 14 (Homo sapiens)
# Sequence (Q16539 whole entry): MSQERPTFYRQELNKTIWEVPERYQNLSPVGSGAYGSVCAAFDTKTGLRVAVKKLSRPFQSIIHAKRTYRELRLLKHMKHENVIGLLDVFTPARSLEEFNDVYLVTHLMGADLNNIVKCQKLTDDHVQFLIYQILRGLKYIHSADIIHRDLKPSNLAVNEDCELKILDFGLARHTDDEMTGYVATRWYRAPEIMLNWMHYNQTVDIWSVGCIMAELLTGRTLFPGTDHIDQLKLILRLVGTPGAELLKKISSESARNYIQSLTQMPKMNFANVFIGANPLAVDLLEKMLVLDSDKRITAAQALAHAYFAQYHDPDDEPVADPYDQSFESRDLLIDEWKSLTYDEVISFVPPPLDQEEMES
# TEST_METHOD_NOTES: Inhibitory activity against Mitogen-activated protein kinase p38 alpha 2
pIC50: −log10 of the molar value.
OBSERVED_PROPERTY: pIC50

Completed entries (count: 5):
Given item CCCCOc1ccc(Sc2ccc(NC(=O)Nc3cc(C(C)(C)C)nn3C)cc2)cc1 , the value recorded as its pIC50 is 7.16

Given item CC(=O)Nc1ccc(Cc2ccc(NC(=O)Nc3cc(C(C)(C)C)nn3C)cc2)cc1 , the value recorded as its pIC50 is 7.15

Given item CCC(=O)Nc1ccc(Cc2ccc(NC(=O)Nc3cc(C(C)(C)C)nn3C)cc2)cc1 , the value recorded as its pIC50 is 7.42

Given item Cn1nc(C(C)(C)C)cc1NC(=O)Nc1ccc(SCc2ccncc2)cc1 , the value recorded as its pIC50 is 6.85

Given item Cn1nc(C(C)(C)C)cc1NC(=O)Nc1ccc(Nc2ccncc2)cc1 , the value recorded as its pIC50 is 6.38

1 = CCC(=O)Nc1ccc(Oc2ccc(NC(=O)Nc3cc(C(C)(C)C)nn3C)cc2)cc1
2 = Cn1nc(C(C)(C)C)cc1NC(=O)Nc1ccc(OCc2ccncc2)cc1
3 = Cc1ccc(Oc2ccc(NC(=O)Nc3cc(C(C)(C)C)nn3C)cc2)cc1
### Prompt rank_up(items): orders items by reported pIC50 in ascending numerical order. Answer format: list of labels, ordered as asked.
### Response 2, 3, 1
